Listed here are molecules together with their documented normalized growth.
# PROCEDURE SUMMARY: chemical genetic growth profiling, strain panel (AID 1159580);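 also: tested at 20 µM; growth read once vehicle control cultures reached saturation at 30 °C; 1 = growth at the plate median or of vehicle wells; lower values mean less growth of the strain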
# CONDITION: S. cerevisiae deletion strains, growth OD, locus YDR363W, strain ESC2, active compounds read low
Hit rate of the full screen: of about 5,500 compounds, about 2,000 (36%) were called active. Roughly 18% stayed inconclusive and do not appear here. This is one part of the list.
ENDPOINT NAME: normalized growth

- Cc1[nH]c2ccc(O)cc2c1CCN: 1.05
- C[C@]12C=CC(=O)C=C1CC[C@@H]1C2=CC[C@]2(C)[C@@H](C(=O)CN3CCN(c4cc(N5CCCC5)nc(N5CCCC5)n4)CC3)CC[C@@H]12: 0.964
- CC1c2cccc(O)c2C(O)=C2C(=O)C3(O)C(O)=C(C(N)=O)C(=O)C(N(C)C)C3C(O)C21 (configuration not stated): 0.936
- C/C(=C\c1ccc(C(=O)O)cc1)c1ccc2c(c1)C(C)(C)CCC2(C)C: 1.02
- CC(C)(C)NCC(O)c1ccc(O)c(CO)c1 (configuration not stated): 1.03
- CN=C(NC#N)Nc1ccc(C2=NNC(=O)CC2C)cc1 (configuration not stated): 1.01
- CC[N+](C)(C)c1cccc(O)c1: 1.01
- O=c1[nH]c2cc(Cl)ccc2c(O)c1-c1ccc(Oc2ccccc2)cc1: 1
- CN(C)C(=O)Oc1cccc([N+](C)(C)C)c1: 1.04
- C#CCN[C@H](C)Cc1ccccc1: 1.01
- NCCCNCCCCNCCCN: 1.02
- CCCN(CCc1ccccc1)C1CCc2c(O)cccc2C1 (configuration not stated): 1.02

* * *

Property: normalized growth; scope: individual compounds
# PROCEDURE SUMMARY: chemical genetic growth profiling, strain panel (AID 1159580)
# CONDITION: S. cerevisiae strains, growth OD, strain wild type, active compounds read low
The campaign covered roughly 5,500 compounds. About 2,000 (36%) were called active. About 18% were inconclusive and are not listed. The list shows a part of the results.
ENDPOINT NAME: normalized growth

• CC(Cc1cccc(C(F)(F)F)c1)NCCOC(=O)c1ccccc1 (configuration not stated) = 0.955
• CCN(CC)CCOC(=O)C(c1ccccc1)C1CCCCC1 (configuration not stated) = 0.995
• O=C(O)c1ccc(S(=O)(=O)N(Cl)Cl)cc1 = 1
• CN(C)CCCN1c2ccccc2CCc2ccccc21 = 1.01
• CN(C)CCCN1c2ccccc2Sc2ccccc21 = 0.992
• CC12CCC3C(CC3(C)C)C(C)(CCC1=O)O2 (configuration not stated) = 1.03
• Fc1cc(F)cc(COc2cc(Cl)cc(Cl)c2)c1 = 0.96
• O=S(=O)(Oc1ccc(OCc2ccccc2)cc1)c1cc(Cl)cc(Cl)c1 = 1
• CN(C)CCCN1c2ccccc2CCc2ccc(Cl)cc21 = 0.902
• Cc1onc(-c2c(Cl)cccc2Cl)c1NC(=O)O/N=C\c1ccc(N(C)C)cc1 = 0.956
• O=C(NCO)c1cccnc1 = 0.986
• COc1ccc(C2Sc3ccccc3N(CCN(C)C)C(=O)C2OC(C)=O)cc1 (configuration not stated) = 1.01

* * *

# PROCEDURE SUMMARY: chemical genetic growth profiling, strain panel (AID 1159580);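 also: tested at 20 µM; growth read once vehicle control cultures reached saturation at 30 °C; 1 = growth at the plate median or of vehicle wells; lower values mean less growth of the strain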
# CONDITION: S. cerevisiae deletion strains, growth OD, strain NNK1, active compounds read low
Screen size: about 5,500 compounds; about 2,000 (36%) were called active. Not shown: some 18% with an inconclusive outcome. The list shows a part of the results.
Each entry below carries its recorded normalized growth.
ENDPOINT NAME: normalized growth

- N/C(Cc1cccc2ccccc12)=N/OC(=O)c1ccc(Cl)cc1: 0.948
- Cc1ccc(-c2csc(-c3ccncc3)n2)cc1: 0.911
- Cc1ccc2nc(-c3ccc4c(c3)OCCO4)cn2c1: 0.975
- O=C(CSC1=NNC(c2ccccn2)S1)Nc1ccccc1 (configuration not stated): 0.995
- CC(=O)c1ccc(Cl)c(N=Cc2cc(Cl)cc(Cl)c2O)c1: 0.948
- C#CCSC1=NNC(c2ccccn2)S1 (configuration not stated): 0.408
- Cc1ccc(-n2cccc2)c(NS(=O)(=O)c2ccc(-c3ccno3)s2)c1: 0.938
- N#CSCC(=O)c1ccccc1: 0.0857
- CCOC(=O)c1ccc(Cl)c(N=Cc2cc(Cl)cc(Cl)c2O)c1: 0.957
- OC(COc1ccc(F)cc1)(c1ccc(Cl)cc1)c1ccc(Cl)cc1: 0.992
- CC(=O)c1ccc(Cl)c(N=Cc2cc(Br)cc(Br)c2O)c1: 0.102
- Clc1ccc(CN2CCN(c3cccc4[nH]ccc34)CC2)cc1Cl: 0.993

* * *

In this section, each of the compounds is paired with its reported normalized growth.
# PROCEDURE SUMMARY: chemical genetic growth profiling, strain panel (AID 1159580);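 also: tested at 20 µM; growth read once vehicle control cultures reached saturation at 30 °C; 1 = growth at the plate median or of vehicle wells; lower values mean less growth of the strain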
# CONDITION: S. cerevisiae deletion strains, growth OD, locus YDL005C, strain med2, active compounds read low
Out of some 5,500 compounds screened, about 2,000 (36%) were called active. Roughly 18% stayed inconclusive and do not appear here. Some of the results follow.
ENDPOINT NAME: normalized growth

* CCN(CC)CCOCCOC(=O)C1(c2ccccc2)CCCC1 | 0.988 (inactive)
* CC1=CCCC2C1(C)CCC(C)C2(C)CC/C(C)=C/C[n+]1cn(C)c2c(N)ncnc21 (stereo not given) | 0.984 (inactive)
* CS(=O)(=O)c1ccc([C@@H](O)[C@@H](CO)NC(=O)C(Cl)Cl)cc1 | 1.02 (inactive)
* CC(C)CCCC(C)[C@H]1CCC2C3CC=C4CC(=O)CC[C@]4(C)C3CC[C@@]21C (stereo not given in full) | 0.99 (inactive)
* Cc1cc(=O)[nH]c(=S)[nH]1 | 0.97 (inactive)
* COc1ccc([C@@H]2CC(=O)c3c(O)cc(O[C@@H]4O[C@H](CO[C@H]5O[C@@H](C)[C@H](O)[C@@H](O)[C@H]5O)[C@@H](O)[C@H](O)[C@H]4O)cc3O2)cc1O | 0.98 (inactive)
* CC(C)CCCC(C)C1CCC2C3C[C@@H](O)[C@@]4(O)C[C@@H](O)CC[C@]4(C)C3CC[C@]12C (stereo not given in full) | 0.996 (inactive)
* CC(=O)c1ccc(O)c(CC=C(C)C)c1 | 0.952 (inactive)
* CO[C@H]1CC(O[C@@H]2/C(C)=C/C[C@@H]3C[C@@H](C[C@]4(CC[C@H](C)[C@@H](C5CCCCC5)O4)O3)OC(=O)[C@@H]3C=C(C)/C(=N\O)[C@H]4OC/C(=C\C=C\[C@@H]2C)[C@]43O)O[C@@H](C)C1O (stereo not given in full) | 1.02 (inactive)
* CCC(C)[C@H]1O[C@]2(C=C[C@@H]1C)C[C@@H]1C[C@@H](C/C=C(\C)[C@@H](OC3C[C@H](OC)C(O[C@H]4C[C@H](OC)[C@@H](O)[C@H](C)O4)[C@H](C)O3)[C@@H](C)/C=C/C=C3\CO[C@@H]4[C@H](O)C(C)=C[C@@H](C(=O)O1)[C@]34O)O2 (stereo not given in full) | 0.971 (inactive)
* COc1cc(C/C=C/c2ccccc2)c(OC)cc1O | 0.948 (inactive)
* CC(C)CCCC(C)C1CCC2C3=CC[C@H]4C[C@@H](O)CC[C@]4(C)C3CC[C@@]21C (stereo not given in full) | 0.997 (inactive)
* CCCc1cc(=O)[nH]c(=S)[nH]1 | 1.03 (inactive)
* CC(C)CCCC(C)[C@H]1CCC2C3CC=C4C[C@@H](O)CC[C@]4(C)C3CC[C@@]21C (stereo not given in full) | 0.976 (inactive)
* CC(=O)OCC(=O)[C@@]1(O)[C@H](C)CC2C3CCC4=CC(=O)C=C[C@]4(C)[C@@]3(F)[C@@H](O)C[C@@]21C (stereo not given in full) | 0.964 (inactive)

* * *

# PROCEDURE SUMMARY: chemical genetic growth profiling, strain panel (AID 1159580);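 also: tested at 20 µM; growth read once vehicle control cultures reached saturation at 30 °C; 1 = growth at the plate median or of vehicle wells; lower values mean less growth of the strain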
# CONDITION: S. cerevisiae deletion strains, growth OD, locus YNL322C, strain KRE1, active compounds read low
The whole screen tested about 5,500 compounds, of which about 2,000 (36%) were called active. Inconclusive results (about 18%) are left out. The list shows a part of the results.
ENDPOINT NAME: normalized growth

* Nc1ccc2nonc2c1N | 0.988
* COC(=O)c1ccc(S(=O)(=O)N2CCC(C(N)=O)CC2)n1C | 1
* C=C(C)C1CCC(C)(O)C2CC3OC3(C)C2C1 (configuration not stated) | 1.01
* N/C(=N/OC(=O)c1ccccc1)c1ccc(-c2csnn2)cc1 | 1.01
* C#CCN[C@H](C)Cc1ccccc1 | 0.998
* CC(=O)N[C@@H](Cc1c[nH]c2ccccc12)C(=O)OCc1cc(C(F)(F)F)cc(C(F)(F)F)c1 | 1.01
* O=C(O)[C@@H]1C[C@@H](C(=O)O)N1 | 0.986
* N#CCCC1(CCC#N)c2ccccc2-c2ccccc21 | 1.01
* CCN(CC)CCOC(=O)C(c1ccccc1)C1CCCCC1 (configuration not stated) | 0.988
* CCN(CC)CCOCCOC(=O)C1(c2ccccc2)CCCC1 | 1.01
* Cc1c(C)c2c(c(C)c1O)CCC(C)(CCCC(C)CCCC(C)CCCC(C)C)O2 (configuration not stated) | 1
* CC1(C)CC2C1CC[C@]1(CBr)CCC3C(CC(=O)O)C(=O)O[C@@]32C1 (some centres not stated) | 0.988
